target: UniProtKB P27338; assay: Inhibition of recombinant human MAO-B expressed in baculovirus infected BTI insect cells preincubated for 30 mins followed by addition of p-tyramine as substrate measured over 45 mins by Amplex Red MAO assay
Sequence (P27338 whole entry): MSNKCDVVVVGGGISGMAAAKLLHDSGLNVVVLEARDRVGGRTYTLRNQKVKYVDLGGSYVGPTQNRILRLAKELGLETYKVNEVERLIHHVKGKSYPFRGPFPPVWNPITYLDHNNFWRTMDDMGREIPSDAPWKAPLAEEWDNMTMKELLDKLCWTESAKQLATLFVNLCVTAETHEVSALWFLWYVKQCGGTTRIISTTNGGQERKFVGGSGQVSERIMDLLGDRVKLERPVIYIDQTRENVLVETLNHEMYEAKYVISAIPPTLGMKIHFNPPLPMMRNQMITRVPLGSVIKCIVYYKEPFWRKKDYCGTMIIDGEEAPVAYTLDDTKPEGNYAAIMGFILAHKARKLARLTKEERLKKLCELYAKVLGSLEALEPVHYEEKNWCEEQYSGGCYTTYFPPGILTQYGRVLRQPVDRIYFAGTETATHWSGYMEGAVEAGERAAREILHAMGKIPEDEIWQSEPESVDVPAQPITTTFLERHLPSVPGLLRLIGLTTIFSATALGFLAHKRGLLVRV
READOUT_LABEL: IC50 (nM)

{"columns": ["CPD_SMILES", "IC50, nM"],
 "data": [
  ["Cn1c(=O)c2c(nc3n2CCN(CCc2ccccc2Br)C3)n(C)c1=O", 970]
]}

A: Cn1c(=O)c2c(nc3n2CCN(CCc2cccc(Br)c2)C3)n(C)c1=O
B: Cn1c(=O)c2c(nc3n2CCN(c2cccc4ccccc24)C3)n(C)c1=O
Sort A and B by IC50 descending and give the first. Your choice should be expressed through its label.
A
(A: 3650 nM, B: 828 nM)

====

target: Adenosine receptor A1 (Rattus norvegicus); assay: Displacement of [3H]MSX from rat A1 receptor measured after 75 mins by liquid scintillation counting method
Sequence (P25099 whole entry): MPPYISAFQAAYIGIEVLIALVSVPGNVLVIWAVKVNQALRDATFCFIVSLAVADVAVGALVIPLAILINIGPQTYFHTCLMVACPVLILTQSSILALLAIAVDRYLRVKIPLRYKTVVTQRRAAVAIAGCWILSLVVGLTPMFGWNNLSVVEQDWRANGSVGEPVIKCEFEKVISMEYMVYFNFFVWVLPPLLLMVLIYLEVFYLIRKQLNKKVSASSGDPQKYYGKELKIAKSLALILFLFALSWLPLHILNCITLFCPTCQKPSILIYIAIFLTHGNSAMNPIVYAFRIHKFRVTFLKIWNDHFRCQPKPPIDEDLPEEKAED
READOUT_LABEL: Ki (nM)

a: Cn1c(=O)c2c(nc3n2CCN(Cc2ccccc2)C3)n(C)c1=O
b: Cn1c(=O)c2c(nc3n2CCN(Cc2ccc(Cl)c(Cl)c2)C3)n(C)c1=O
Sort a and b by Ki descending and give the first. Your choice should be expressed through its label.
a

====

target: Adenosine receptor A2b (Homo sapiens); experiment: Displacement of [3H]PSB-603 from human A2B receptor expressed in CHO cell membrane at 0.3 uM relative to control; assay type: cell membranes
READOUT_LABEL: Activity (%)

Here are 2 molecules together with their reported answers.
{"columns": ["MOLECULE", "TEST_TARGET", "Activity [%]"],
 "data": [
  ["Cn1c(=O)c2c(nc3n2CCN(CCc2ccccc2F)C3)n(C)c1=O", "Adenosine receptor A2b (Homo sapiens)", 2],
  ["Cn1c(=O)c2c(nc3n2CCN(C2CCc4ccccc42)C3)n(C)c1=O (racemic)", "Adenosine receptor A2b (Homo sapiens)", 10]
]}

a: Cn1c(=O)c2c(nc3n2CCN(CCc2cccc(Br)c2)C3)n(C)c1=O
b: Cn1c(=O)c2c(nc3n2CCN(CCc2cccc(F)c2)C3)n(C)c1=O
c: Cn1c(=O)c2c(nc3n2CCN(CCc2cc(C(F)(F)F)ccc2F)C3)n(C)c1=O
// sort entries: Activity, high to low Answer by naming the labels in the order asked.
a, c, b

====

molecular target: Adenosine receptor A2a (Rattus norvegicus, UniProt P30543)
Sequence (P30543 whole entry): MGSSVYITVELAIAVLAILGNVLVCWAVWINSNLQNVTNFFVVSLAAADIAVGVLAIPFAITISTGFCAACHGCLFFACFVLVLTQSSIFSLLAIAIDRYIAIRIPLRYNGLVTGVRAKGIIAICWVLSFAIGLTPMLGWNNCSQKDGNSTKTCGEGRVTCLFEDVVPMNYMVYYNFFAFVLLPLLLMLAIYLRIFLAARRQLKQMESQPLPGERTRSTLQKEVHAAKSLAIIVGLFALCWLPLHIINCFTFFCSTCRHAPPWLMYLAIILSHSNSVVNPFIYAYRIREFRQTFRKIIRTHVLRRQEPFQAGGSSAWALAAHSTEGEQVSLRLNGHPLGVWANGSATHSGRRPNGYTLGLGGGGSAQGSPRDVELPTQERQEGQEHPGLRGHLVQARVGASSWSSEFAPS
pKi: −log10 of the molar value.
READOUT_LABEL: pKi

Here are 3 compounds together with their reported answers.
{"columns": ["COMPOUND", "pKi"],
 "data": [
  ["Cn1c(=O)c2c(nc3n2CCN(CCCc2ccccc2)C3)n(C)c1=O", 5.74],
  ["Cn1c(=O)c2c(nc3n2CCN(C2CCc4ccccc42)C3)n(C)c1=O (racemic)", 5.38],
  ["Cn1c(=O)c2c(nc3n2CCN(CCc2ccccc2)C3)n(C)c1=O", 5.02]
]}

a: Cn1c(=O)c2c(nc3n2CCN(c2ccccc2)C3)n(C)c1=O
b: Cn1c(=O)c2c(nc3n2CCN(Cc2csc(-c4cccs4)n2)C3)n(C)c1=O
Pick one, a or b : lowest reported pKi. Your choice should be expressed through its label.
a
(a: 5.42, b: 6.92)

====

molecular target: Amine oxidase [flavin-containing] A (Homo sapiens); assay: Inhibition of recombinant human MAO-A expressed in baculovirus infected BTI insect cells at 10 uM preincubated for 30 mins followed by addition of p-tyramine as substrate measured over 45 mins by Amplex Red MAO assay relative to control; conditions: 0.75 h
Sequence (P21397 whole entry): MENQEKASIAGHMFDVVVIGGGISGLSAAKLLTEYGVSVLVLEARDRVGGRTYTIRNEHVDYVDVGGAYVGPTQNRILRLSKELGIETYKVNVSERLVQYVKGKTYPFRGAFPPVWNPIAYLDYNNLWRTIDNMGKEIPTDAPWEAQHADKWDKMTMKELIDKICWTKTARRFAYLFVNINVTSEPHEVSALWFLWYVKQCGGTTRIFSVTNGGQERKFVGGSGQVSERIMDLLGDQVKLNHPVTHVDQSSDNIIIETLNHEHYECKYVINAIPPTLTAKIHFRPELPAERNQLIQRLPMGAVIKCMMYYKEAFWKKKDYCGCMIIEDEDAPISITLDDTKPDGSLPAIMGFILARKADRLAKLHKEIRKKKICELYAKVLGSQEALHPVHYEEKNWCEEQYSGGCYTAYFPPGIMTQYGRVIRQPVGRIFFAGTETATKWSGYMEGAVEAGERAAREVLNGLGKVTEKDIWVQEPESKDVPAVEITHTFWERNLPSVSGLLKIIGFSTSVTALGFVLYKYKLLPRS
READOUT_LABEL: inhibition at 10 µM (%)

I: Cn1c(=O)c2c(nc3n2CCN(CCCc2cccc(Br)c2)C3)n(C)c1=O
II: Cn1c(=O)c2c(nc3n2CCN(c2cccc(Cl)c2)C3)n(C)c1=O
Pick one, I or II : lowest reported inhibition at 10 µM. Your choice should be expressed through its label.
II
(II: 4%, I: 16%)
